Listing: IC50 of selected compounds
System: MIAPaCa-2
Assay: Cytotoxicity assay (WST-8)
Format: cell-based
Conditions: Homo sapiens, MIA PaCa-2, 96 h incubation

compound	target_entity	value_comparator	IC50 (µM)
Cc1ccc(S(=O)(=O)Nc2ccc3sc(/C=C/C(=O)NO)cc3c2)cc1 [KH-2]	MIAPaCa-2	=	2.33
CC(C)(C)c1ccc(S(=O)(=O)Nc2ccc3sc(/C=C/C(=O)O)cc3c2)cc1 [KH-3A]	MIAPaCa-2	>	100
CC(C)(C)c1ccc(S(=O)(=O)Nc2ccc3sc(/C=C/C(=O)NO)cc3c2)cc1 [KH-3]	MIAPaCa-2	=	4.5
Cc1cc(C)c(S(=O)(=O)Nc2ccc3sc(/C=C/C(=O)O)cc3c2)c(C)c1 [KH-4A]	MIAPaCa-2	>	100
CCOC(=O)/C=C/c1cc2cc(NS(=O)(=O)c3ccccc3)ccc2s1 [KH-1B]	MIAPaCa-2	=	37.6
O=C(O)/C=C/c1cc2cc(NS(=O)(=O)c3ccccc3)ccc2s1 [KH-1A]	MIAPaCa-2	>	100

* * *

Test system: MDA-MB-231
Test: Cytotoxicity assay (WST-8)
Assay type: cell-based
Conditions: Homo sapiens, MDA-MB-231, 96 h, read-out: Cytotoxicity (IC50, μM) MDA-MB-231
value_kind: IC50 (µM)

molecule	value_kind	unit_text	measured_result
O=C(/C=C/c1cc2cc(NS(=O)(=O)c3ccccc3)ccc2s1)NO [KH-1]	IC50	µM	0.98
CC(C)(C)c1ccc(S(=O)(=O)Nc2ccc3sc(/C=C/C(=O)NO)cc3c2)cc1 [KH-3]	IC50	µM	4.15
Cc1ccc(S(=O)(=O)Nc2ccc3sc(/C=C/C(=O)NO)cc3c2)cc1 [KH-2]	IC50	µM	1.46
Cc1cc(C)c(S(=O)(=O)Nc2ccc3sc(/C=C/C(=O)NO)cc3c2)c(C)c1 [KH-4]	IC50	µM	1.04

* * *

Listing: Ki of selected molecules
Target: HuR protein interaction with the ARE site of Msi1 mRNA (HuR-Msi1^ARE) (Homo sapiens)
Construct: full-length human HuR protein was produced by the KU COBRE-PSF Protein Purification Group
Sequence (Q15717 whole entry): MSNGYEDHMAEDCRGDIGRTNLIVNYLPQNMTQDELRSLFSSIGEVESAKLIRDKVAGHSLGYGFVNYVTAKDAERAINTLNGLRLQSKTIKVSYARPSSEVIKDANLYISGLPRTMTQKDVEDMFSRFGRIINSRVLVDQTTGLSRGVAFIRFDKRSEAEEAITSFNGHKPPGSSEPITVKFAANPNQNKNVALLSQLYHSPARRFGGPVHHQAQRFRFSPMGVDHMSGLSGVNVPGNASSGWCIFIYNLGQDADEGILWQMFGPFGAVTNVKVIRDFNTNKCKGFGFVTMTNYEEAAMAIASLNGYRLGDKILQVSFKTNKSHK
Assay: Fluorescence polarization (FP) assay, inhibition of HuR-Msi1 ARE interaction
Conditions: full-length human HuR, read-out: Ki via FP assay

smiles_str	Ki
O=C(/C=C/c1cc2cc(NS(=O)(=O)c3ccccc3)ccc2s1)NO	9.2 µM
Cc1cc(C)c(S(=O)(=O)Nc2ccc3sc(/C=C/C(=O)O)cc3c2)c(C)c1	2.92 µM
CCOC(=O)/C=C/c1cc2cc(NS(=O)(=O)c3ccc(C(C)(C)C)cc3)ccc2s1	> 20 µM
Cc1ccc(S(=O)(=O)Nc2ccc3sc(/C=C/C(=O)O)cc3c2)cc1	2.92 µM
CC(C)(C)c1ccc(S(=O)(=O)Nc2ccc3sc(/C=C/C(=O)O)cc3c2)cc1	1.38 µM
CC(C)(C)c1ccc(S(=O)(=O)Nc2ccc3sc(/C=C/C(=O)NO)cc3c2)cc1	0.81 µM
CCOC(=O)/C=C/c1cc2cc(NS(=O)(=O)c3c(C)cc(C)cc3C)ccc2s1	> 20 µM
Cc1cc(C)c(S(=O)(=O)Nc2ccc3sc(/C=C/C(=O)NO)cc3c2)c(C)c1	1.41 µM
O=C(O)/C=C/c1cc2cc(NS(=O)(=O)c3ccccc3)ccc2s1	5.82 µM
CCOC(=O)/C=C/c1cc2cc(NS(=O)(=O)c3ccccc3)ccc2s1	> 20 µM
Cc1ccc(S(=O)(=O)Nc2ccc3sc(/C=C/C(=O)NO)cc3c2)cc1	5.55 µM
CCOC(=O)/C=C/c1cc2cc(NS(=O)(=O)c3ccc(C)cc3)ccc2s1	> 20 µM

* * *

Tested on: MDA-MB-231
Assay: Cytotoxicity assay (WST-8)
Format: cell-based
Conditions: Homo sapiens, MDA-MB-231; 96 h incubation, WST-8; read-out: Cytotoxicity (IC50, μM) MDA-MB-231
Listing: IC50 of selected compounds
value_kind: IC50

smiles_str	measured_result
CCOC(=O)/C=C/c1cc2cc(NS(=O)(=O)c3c(C)cc(C)cc3C)ccc2s1	> 100 µM
Cc1cc(C)c(S(=O)(=O)Nc2ccc3sc(/C=C/C(=O)O)cc3c2)c(C)c1	> 100 µM
CCOC(=O)/C=C/c1cc2cc(NS(=O)(=O)c3ccc(C(C)(C)C)cc3)ccc2s1	45.6 µM
O=C(O)/C=C/c1cc2cc(NS(=O)(=O)c3ccccc3)ccc2s1	> 100 µM
CC(C)(C)c1ccc(S(=O)(=O)Nc2ccc3sc(/C=C/C(=O)O)cc3c2)cc1	> 100 µM
CCOC(=O)/C=C/c1cc2cc(NS(=O)(=O)c3ccccc3)ccc2s1	41.8 µM
CCOC(=O)/C=C/c1cc2cc(NS(=O)(=O)c3ccc(C)cc3)ccc2s1	43 µM
Cc1ccc(S(=O)(=O)Nc2ccc3sc(/C=C/C(=O)O)cc3c2)cc1	> 100 µM

This collection of values is drawn from patent US20230131501A1.
